# Tested system: Histone deacetylase 1 (Homo sapiens, UniProt Q13547)
# Sequence (Q13547 whole entry): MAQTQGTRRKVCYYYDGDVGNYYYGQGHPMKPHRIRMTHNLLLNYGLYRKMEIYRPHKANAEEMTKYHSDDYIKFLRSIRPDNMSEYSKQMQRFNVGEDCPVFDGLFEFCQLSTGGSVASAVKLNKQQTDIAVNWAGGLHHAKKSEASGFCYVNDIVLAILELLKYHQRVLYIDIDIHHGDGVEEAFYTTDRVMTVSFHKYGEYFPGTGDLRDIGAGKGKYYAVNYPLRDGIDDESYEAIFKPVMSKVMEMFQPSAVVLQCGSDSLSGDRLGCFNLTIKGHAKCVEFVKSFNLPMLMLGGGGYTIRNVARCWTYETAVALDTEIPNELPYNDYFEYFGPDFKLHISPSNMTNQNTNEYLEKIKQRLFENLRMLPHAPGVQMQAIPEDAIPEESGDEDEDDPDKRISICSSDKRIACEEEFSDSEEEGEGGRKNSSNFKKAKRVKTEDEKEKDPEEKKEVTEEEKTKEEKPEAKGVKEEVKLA
# Protocol description: Inhibition of human HDAC1 in U937 cells by immunoprecipitation assay
Measured endpoint: IC50 (nM)
State just the number; it will be interpreted in nM.

Task item: Quick check: IC50 of `Nc1ccccc1NC(=O)c1ccc(CSc2nc(-c3ccccc3)cc(=O)[nH]2)cc1` ?
Reply: 200

###

# System: U-937
# Protocol description: Induction of granulocytic differentiation in human U937 cells assessed as CD11c expression at 5 uM after 30 hrs
# Assay type: functional
Measured endpoint: Activity (%)
State just the number; it will be interpreted in %.

- Smiles code: "Nc1cccc2cccc(NC(=O)CCCCCc3nc(-c4ccc(-c5ccccc5)cc4)cc(=O)[nH]3)c12"
  Test value: 67.6
- Smiles code: "O=C(CCCCCCC(=O)Nc1ccccc1)NO"
  Test value: 21.5
- Smiles code: "Nc1ccccc1NC(=O)c1ccc(CNC(=O)OCc2cccnc2)cc1"
  Test value: 30.8
- Smiles code: "Nc1ccccc1NC(=O)CCCCCc1nc(-c2ccc(-c3ccccc3)cc2)cc(=O)[nH]1"
  Test value: 45.9
- Smiles code: "Nc1ccccc1NC(=O)c1ccc(CSc2nc(-c3ccccc3)cc(=O)[nH]2)cc1"
  Test value: 47.6
- Smiles code: "Nc1ccccc1NC(=O)CCCCCC(=O)Nc1ccccc1"
  Test value: 18.3
- Smiles code: "Nc1cccc2cccc(NC(=O)CCCCSc3nc(-c4ccccc4)cc(=O)[nH]3)c12"
  Test value: 30.3

Proceeding to the next compound to report its Activity.
Task item: Quick check: Activity of `O=C(CCCCCC(=O)Nc1ccccc1O)Nc1ccccc1` ?
Reply: 36.6

###

# Tested system: Histone deacetylase 4 (Homo sapiens, UniProt P56524)
# Sequence (P56524 whole entry): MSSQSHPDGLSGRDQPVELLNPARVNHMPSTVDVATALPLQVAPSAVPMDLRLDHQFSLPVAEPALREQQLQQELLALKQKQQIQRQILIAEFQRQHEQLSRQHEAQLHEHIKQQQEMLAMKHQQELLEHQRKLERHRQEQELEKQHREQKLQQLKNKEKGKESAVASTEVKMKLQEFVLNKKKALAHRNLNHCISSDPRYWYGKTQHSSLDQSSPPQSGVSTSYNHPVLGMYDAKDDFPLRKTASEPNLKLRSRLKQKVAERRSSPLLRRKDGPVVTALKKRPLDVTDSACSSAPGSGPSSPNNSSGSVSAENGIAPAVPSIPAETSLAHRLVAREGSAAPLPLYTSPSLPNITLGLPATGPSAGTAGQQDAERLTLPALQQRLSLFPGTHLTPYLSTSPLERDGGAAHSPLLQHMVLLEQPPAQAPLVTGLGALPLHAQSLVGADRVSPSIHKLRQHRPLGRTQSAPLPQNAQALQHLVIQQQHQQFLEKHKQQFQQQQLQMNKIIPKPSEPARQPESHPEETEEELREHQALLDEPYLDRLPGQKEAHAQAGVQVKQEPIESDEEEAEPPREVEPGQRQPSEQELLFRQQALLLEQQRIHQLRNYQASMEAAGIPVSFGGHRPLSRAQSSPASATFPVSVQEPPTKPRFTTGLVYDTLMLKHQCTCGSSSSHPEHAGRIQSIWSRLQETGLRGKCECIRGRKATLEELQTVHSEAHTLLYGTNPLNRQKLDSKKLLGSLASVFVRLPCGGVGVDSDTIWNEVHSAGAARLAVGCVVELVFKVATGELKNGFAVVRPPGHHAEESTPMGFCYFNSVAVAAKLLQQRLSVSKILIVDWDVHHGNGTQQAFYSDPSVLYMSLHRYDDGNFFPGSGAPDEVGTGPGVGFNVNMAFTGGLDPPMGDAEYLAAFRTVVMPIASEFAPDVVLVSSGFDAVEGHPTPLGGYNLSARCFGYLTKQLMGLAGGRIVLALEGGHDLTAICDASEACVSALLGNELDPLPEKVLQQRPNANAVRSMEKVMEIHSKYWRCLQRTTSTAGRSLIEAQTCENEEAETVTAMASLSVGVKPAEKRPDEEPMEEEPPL
# Protocol description: Inhibition of human HDAC4 in U937 cells by immunoprecipitation assay
Measured endpoint: IC50 (µM)
State just the number; it will be interpreted in µM.

Task item: Quick check: IC50 of `Nc1ccccc1NC(=O)c1ccc(CSc2nc(-c3ccccc3)cc(=O)[nH]2)cc1` ?
Reply: 125
